Numbers sourced from ChEMBL document CHEMBL1944600.

- Subject of test: UniProt Q63470
- Experiment description: Inhibition of GST-tagged rat recombinant DYRK1A expressed in Escherichia coli using myelin basic protein as substrate and [gamma-33P]ATP after 30 mins by scintillation counting
Field: pIC50. Provide a value for each of the compounds that follow.
pIC50 is a log-scale quantity: -log10 of the concentration expressed in molar.

Tell me its pIC50 given O=c1oc2ccc(O)cc2c2c1[nH]c1cccc(C(F)(F)F)c12 as the entry. 5.68

Tell me its pIC50 given O=c1oc2ccc(O)cc2c2c1[nH]c1ccccc12 as the entry. 7.13

Tell me its pIC50 given O=c1oc2cc(O)ccc2c2c1[nH]c1ccc(O)cc12 as the entry. 6.52

Tell me its pIC50 given COc1cccc2[nH]c3c(=O)oc4ccc(O)cc4c3c12 as the entry. 6.46

Tell me its pIC50 given O=c1oc2ccc(O)cc2c2c1[nH]c1ccc(O)cc12 as the entry. 7.17

Tell me its pIC50 given CCCOc1cccc2[nH]c3c(=O)oc4ccc(O)cc4c3c12 as the entry. 5.77

Tell me its pIC50 given O=c1oc2ccc(O)cc2c2c1[nH]c1ccc(F)cc12 as the entry. 6.68

Tell me its pIC50 given Cc1ccc2c(c1)[nH]c1c(=O)oc3ccc(O)cc3c12 as the entry. 5.48

Tell me its pIC50 given O=c1oc2cc(O)ccc2c2c1[nH]c1cc(O)ccc12 as the entry. 5.49

Tell me its pIC50 given O=c1oc2ccc(O)cc2c2c1[nH]c1cc(O)ccc12 as the entry. 5.37

Tell me its pIC50 given O=c1oc2cc(O)c(O)cc2c2c1[nH]c1ccc(O)cc12 as the entry. 5.82

Tell me its pIC50 given O=c1oc2ccc(O)cc2c2c1[nH]c1cc3c(cc12)OCO3 as the entry. 5.74

Tell me its pIC50 given O=c1oc2cc(O)ccc2c2c1[nH]c1ccccc12 as the entry. 6.30

Tell me its pIC50 given Cc1cccc2[nH]c3c(=O)oc4ccc(O)cc4c3c12 as the entry. 6.18
